System: S. aureus strain ATCC 25923
ASSAY_SUMMARY: Antibacterial MIC assay (NCCLS M7-T2 microtiter broth dilution)
Type: cell-based
EXPERIMENTAL_PARAMETERS: S. aureus ATCC 25923; Mueller Hinton broth, 16-20 hours at 37° C.; lowest concentration giving a clear well
Ends that are not written are not given here.
Quick reference for Minimal Inhibitory Concentration S. aureus among some substances
ENDPOINT: Minimal Inhibitory Concentration S. aureus (µg/mL)

- Ac-LLKKLKKLLKLL-NH2 [X-(SEQ ID NO: 2)-NH2]: 16
- LLKKLKKLLKLL-NH2 [(SEQ ID NO.:2)-NH2]: 16
- KLLKKLKKLLKLL-NH2 [(SEQ ID NO.:3)-NH2]: 64
- Ac-LKLLKKLLKKNKKLLKKL-NH2 [X-(SEQ ID NO: 9)-NH2]: 16
- Ac-LKKLLKKLKKL-NH2 [X-(SEQ ID NO: 17)-NH2]: 256
- Ac-KLLKKLKKLLKLL-NH2 [X-(SEQ ID NO: 3)-NH2]: 64
- Ac-LKKLKKLLKLL-NH2 [X-(SEQ ID NO: 1)-NH2]: 16
- Ac-KKLLKKLKKLLKKLRR-NH2 [X-(SEQ ID NO: 5)-NH2]: 4

---

System: S. aureus strain ATCC 25923
ASSAY_SUMMARY: Antibacterial MIC assay (NCCLS M7-T2 microtiter broth dilution)
Assay type: cell-based
EXPERIMENTAL_PARAMETERS: S. aureus ATCC 25923; Mueller Hinton broth, 16-20 hours at 37° C.; lowest concentration giving a clear well
Protocol: Table I, which follows, indicates the Minimal Inhibitory Concentration (MIC) in μg/ml of Peptides (SEQ ID NO:1) through (SEQ ID NO:3), (SEQ ID NO:5), (SEQ ID NO:6), (SEQ ID NO:9) through (SEQ ID NO:11), and (SEQ ID NO:17) against S.aureus strain ATCC 25923, P. aeruginosa strain ATCC 27853, and E.coli ATCC strain 25922. […] The plates are incubated for 16-20 hours at 37° C., and the minimal inhibitory concentration (MIC) for each peptide is determined. […]
Ends that are not written are not given here.
// values below are reported Minimal Inhibitory Concentration S. aureus
ENDPOINT: Minimal Inhibitory Concentration S. aureus

- LKKLKKLLKLL-NH2 [(SEQ ID NO.: 1)-NH2]: 64,128 μg/ml
- Ac-LKLLKKLLKKPKKLLKKL-NH2 [X-(SEQ ID NO: 10)-NH2]: 16,32 μg/ml
- LKKLLKKLKKL-NH2 [(SEQ ID NO: 17)-NH2]: > 256 µg/mL
